Ref: the supplement of paper PMC10981050

- System: OCI-AML2
- procedure_text: cell viability relative to vehicle control; higher = less cytotoxic;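 note: after 48 h exposure read by CellTiter-Glo luminescence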
- measurement_conditions: 10 µM; SRSF2 genotype: P95H/wt
readout_type: cell viability (%)
Your answer should be a plain number; it is taken to be in %.

Previously resolved entries follow.
[
  {
    "compound": "Cc1cc(Nc2nc(N[C@@H](C)c3ccc(F)cc3)c(C#N)cc2F)n[nH]1",
    "cell viability (%)": 6.13
  },
  {
    "compound": "CCCCCCCCCCCCCCCC(=O)O",
    "cell viability (%)": 95.6
  },
  {
    "compound": "O=C1c2ccccc2-c2n[nH]c3cccc1c23",
    "cell viability (%)": 53.1
  },
  {
    "compound": "CC1(C)Cc2c(sc(NC(=O)c3ccn[nH]3)c2C(N)=O)C(C)(C)O1",
    "cell viability (%)": 101
  },
  {
    "compound": "O=C(c1ccc(C(=O)N2CCC(N3CCCC3)CC2)c(Nc2ccccc2)c1)N1CCC(N2CCCC2)CC1",
    "cell viability (%)": 93.8
  },
  {
    "compound": "O=C[C@H](O)[C@@H](O)[C@H](O)CO",
    "cell viability (%)": 103
  }
]

## Input Entry CC1OC(OC2C(CO)OC(OCC3OC(OC(=O)C45CCC(C)(C)CC4C4=CCC6C7(C)CCC(OC8OCC(O)C(O)C8O)C(C)(CO)C7CCC6(C)C4(C)CC5)C(O)C(O)C3O)C(O)C2O)C(O)C(O)C1O (centres undefined) [Hederacoside D] : reported cell viability = ?
## Output 97

## Input Entry Nc1ccc(S(N)(=O)=O)cc1 [Sulfanilamide] : reported cell viability = ?
## Output 102

## Input Entry `CCOC(=O)n1ccn(C)c1=S` : reported cell viability = ?
## Output 108

## Input Entry O=C(Nc1cc(Cl)cc(Cl)c1O)c1c(O)c(Cl)cc(Cl)c1Cl [Oxyclozanide] : reported cell viability = ?
## Output 102

## Input Entry `COc1ccc(C2=N[C@@H](c3ccc(Cl)cc3)[C@@H](c3ccc(Cl)cc3)N2C(=O)N2CCNC(=O)C2)c(OC(C)C)c1` : reported cell viability = ?
## Output 9.37

## Input Entry `CCOC(=O)NCCCC(=O)NCCc1ccccc1` : reported cell viability = ?
## Output 108

## Input Entry C=C[C@@H]1CNC(=S)O1 [Epigoitrin] : reported cell viability = ?
## Output 103

----------
- System: MOLM14
- procedure_text: cell viability relative to vehicle control; higher = less cytotoxic
- measurement_conditions: 10 µM; SRSF2 genotype: SRSF2 P95H/wt
Reported cell viability by item:
Your answer should be a plain number; it is taken to be in %.

[
  {
    "molecule": "CC(C)(C)OC(=O)N[C@H]1CCCCC/C=C\\[C@@H]2C[C@@]2(C(=O)NS(=O)(=O)C2CC2)NC(=O)[C@@H]2C[C@@H](OC(=O)N3Cc4cccc(F)c4C3)CN2C1=O",
    "cell viability / %": 96.8
  },
  {
    "molecule": "COc1cc(NC(=O)c2ccc(-c3ccc(Cl)cc3)o2)cc(OC)c1",
    "cell viability / %": 113
  },
  {
    "molecule": "COc1ccc(CCO[C@@H]2O[C@H](CO[C@@H]3OC[C@H](O)[C@H](O)[C@H]3O)[C@@H](OC(=O)/C=C/c3ccc(O)c(OC)c3)[C@H](O[C@@H]3O[C@@H](C)[C@@H](O)[C@@H](O)[C@H]3O)[C@H]2O)cc1O [Angoroside C]",
    "cell viability / %": 113
  },
  {
    "molecule": "Cc1cc(C(=O)O)n[nH]1",
    "cell viability / %": 96.4
  }
]

Next item in the queue.
## Input Entry CC(=O)Oc1cccc2ccccc12 [1-Naphthyl acetate] : reported cell viability = ?
## Output 93.7
